Experiment: Ratio of drug level in HIV-infected pregnant woman cord blood plasma to maternal blood plasma at 100 mg, po BID by HPLC/UV analysis
Assay type: ADME, organism-based
Conditions: female, human
Assay Endpoint: Kp

- Compound: "CC(C)c1nc(CN(C)C(=O)N[C@H](C(=O)N[C@@H](Cc2ccccc2)C[C@H](O)[C@H](Cc2ccccc2)NC(=O)OCc2cncs2)C(C)C)cs1 [RITONAVIR]"
  Assay Endpoint: "Kp"
  Val: 0.55

* * *

Assay: Ratio of drug level in HIV-infected pregnant woman amniotic fluid to maternal blood plasma at 300 mg, po QD by LC/MS/MS analysis
Assay type: ADME, organism-based
Conditions: female, human

- Molecule: "C[C@H](Cn1cnc2c(N)ncnc21)OCP(=O)(O)O [TENOFOVIR ANHYDROUS]"
  Kp: 158

* * *

Assay: Ratio of drug level in HIV-infected pregnant woman cord blood plasma to maternal blood plasma at 300 mg, po QD by LC/MS/MS analysis
Type: ADME, organism-based
Settings: female, human

- Compound: "C[C@H](Cn1cnc2c(N)ncnc21)OCP(=O)(O)O [TENOFOVIR ANHYDROUS]"
  Kp: 6

* * *

Assay: Ratio of drug level in HIV-infected pregnant woman amniotic fluid to maternal blood plasma at 200 mg, po BID by HPLC/UV analysis
Format: ADME, organism-based
Conditions: female, human

- Smi: "Cc1ccnc2c1NC(=O)c1cccnc1N2C1CC1"
  Kp: 0.53

* * *

Assay: Ratio of drug level in HIV-infected pregnant woman cord blood plasma to maternal blood plasma at 1250 mg, po BID by HPLC/UV analysis
Type: ADME, organism-based
Settings: female, human
Assay Endpoint: Kp

- Smi: "Cc1c(O)cccc1C(=O)N[C@@H](CSc1ccccc1)[C@H](O)CN1C[C@H]2CCCC[C@H]2C[C@H]1C(=O)NC(C)(C)C"
  Val: 0.49

* * *

Test: Ratio of drug level in HIV-infected pregnant woman cord blood plasma to maternal blood plasma at 200 mg, po BID by HPLC/UV analysis
Format: ADME, organism-based
Settings: female, human

- Smi: "Cc1ccnc2c1NC(=O)c1cccnc1N2C1CC1"
  Kp: 0.59

* * *

Assay: Ratio of drug level in HIV-infected pregnant woman amniotic fluid to maternal blood plasma at 1250 mg, po BID by HPLC/UV analysis
Format: ADME, organism-based
Details: female, human

- Smi: "Cc1c(O)cccc1C(=O)N[C@@H](CSc1ccccc1)[C@H](O)CN1C[C@H]2CCCC[C@H]2C[C@H]1C(=O)NC(C)(C)C"
  Kp: 1
